Test system: MALME-3M melanoma
PROTOCOL DETAILS: NCI tumour cell line growth inhibition, 48 h; in the data active = GI50 below about 0.43 µM; inactive = the rest
API: response.call in T (active), F (inactive)

Assay outcome for "O=[N+]([O-])c1ccc2[nH]cc(-c3c4ccccc4cc4[nH]c5ccc([N+](=O)[O-])cc5c34)c2c1" : what was it?
F

Which outcome was entered for the compound "Cc1ccc(/C=C2\CCOC2=O)cc1" in this test?
F

Field: outcome | Entry: "NC(=O)NC(=O)CI"
F

What was the test verdict on "Cn1c2ccccc2c2c3c(c4c5ccccc5n(CCCCCC#N)c4c21)C(=O)N(O)C3=O" ?
F

Entry "Cn1cccc1-c1cc(-c2ccc(Br)cc2)nc(N)c1C#N" : call = ?
F

Could you please tell me the result logged for "O=C1c2cccnc2-c2nc(-c3ccc([N+](=O)[O-])cc3)cc3c2c1nc1ccccc13" in this assay?
F

Each compound tested received a call. Report the one for "COc1ccc2c(CNCCCCO)cc3cc4c(cc3c2c1)OCO4" .
F

What was the test verdict on "CCCNc1nc(-c2ccc(OC)cc2)nc2ccccc12" ?
F

Test call for this compound, please: "C=C1C(=O)O[C@H]2[C@H]1CC/C(Cn1cc(CCC)nn1)=C\CC[C@@]1(C)O[C@@H]21"
F

What call does the record list for "CSC(=S)N/N=C(\C)c1ccccn1" ?
T

Hey, what did the test say about "COc1ccc(-n2c(N)c(C(=O)NCCN3CCOCC3)c3nc4ccccc4nc32)cc1OC" ?
F
